Data origin: the supplement of paper PMC9170038

- Test system: K4 kissing-loop RNA reporter
- Assay summary: apparent KD of K4 kissing-loop reporter; higher = weaker reporter binding
- Cond: Eterna round: R107; input ligand: tryptophan 2.4 mM
Reported endpoint: apparent KD of K4 kissing-loop reporter (nM)

1. GUAUGUGGAAACACGUACUUGUAUCCUAGGCAGGAUAUGCGGAAACGCAGAAGGGCCACCGGCGAGUUUAUCCAGUGAUGUUGGA [Ex FMN A 9] : 237
2. CCAAGCGUCAGCGAUACCAGAAUUCUAGUGAUGUUAGGUUCUGUCAUUGUACUAGCAGUGUUCCCUUGGCAGCGCGUGAUAGGCA [theeternabot_exclusion_KL_Theo_B_16] : 138
3. AAAAUUAACAAGAGUGAUGUUCUUGUUAGACAGGAUAUCGGUUUAACGAGAAGGGUCGUGGCUCCAUUGGGCCCAGUGGUUCACC [Mazareri] : 439
4. CUUGGAAGGACGGCCGCCACUCGACGGAGUGAUGUUCCGUGUGGGUAGCGCAGUGAUGUUGUGUCGAGGACCGGGUCCUAGGAAU [Exclusion Tryptophan B GF 28] : 77.7
5. AAACAACUUGACGAUACCAGCUUACUCGGCAAGCCAGUGAUGUUGGUGAAAAGGAGUCAAAGCCCUUGGCAGCGUCGAAGGUCUG [Raatarerin] : 258
6. AGAGUGAUGUUUUUUUGAAGUGAGUAAUGUCGAGGACCGGUACGGCCGCCACUCGAGUGAUGUUAGUGAUGUUGAUGUAGUGAUG [?lmullin] : 127
7. GCCGUAGAUUGAAGGAGCGCUAGUCUACGAUGACACACAGUGAUGUUGUGCGUGAUUUCAUAGCAGGUAGGUCGCAAUCUACGGC : 183
8. AAUAAAAUCACGGCCGCCACUGAAUAAUUACAAAGUAGUGAUGUUACUUUACAUAUCUUAUUUAACAGGACCGGGUGAAUAUUUA [JR_ExcTryptoB_Sub007] : 78.3
9. UUAGAGAUCUCAGGAUAUCAGUGAUGUUGGUUGCCAGAUCUGAGAUAGAAUUCUAUCUCAGAUCAAUGAGAAGGGAGAUCUCAUU [AK4 Exc FMN B] : 282
10. AUUUUUUUGUCAGGAUAUUAGUGUGCGUUUGGUUUGUUAGUGAUGUUGAUAUUUGGUUUAUGUAUUUAAGAAGGGAUUUAGCGGU [dhbbtemullin] : 357
11. UGAUAGGACAGAAGGAGCGGUAGUGAUGUUACCAAAAGUAUAAGGUGUCAAAAGACACCCUGCCAGGUAGGUCGCUGUCCUAUCU : 152
12. AGUGAACGAGCGGCCGCCACUAAAUGAGUGAUGUUCGUGAGUAGUGCUGUUGUCAUGAUUGUUUUUAGGACCGGGUUCGAUGUUG [popplmullin] : 719
13. AAAUUUAAUAUAUUUAAUUAAUUAAGUGAUACCAGACAUUAAUAAGUCCCUUGGCAGCACAAUGCAGUGAUGUUGCUUAUAAUAA [JR_SSTheophyA_Sub009] : 76.3
14. UGUCAUGGAAACAUGAACGUUGAAAUAAAUCGAGGACCGGUACGGCCGCCACUCGUAUAGCGGUCAGUGAUGUUGACUGUAAUAA [KL-SSTryp-A form2 sub9] : 98.7
15. UGAUCUCGGCAGUGAUGUUGCAUAUGAGAAGGAGCGCACGAAAGUGCAGGUAGGUCGCUCAGCCACGACGAAAGUCGCGAGAUCU [#SwitchBubble 3 #K4Early] : 129
16. UGUGAUGUGUAGUGUGAUGUUUUGAAGGAUACCAGAGUGUUGUUAUUCCCUUGGCAGCUUGAGUGAUGUUUGAUGUUGUUGUUGU [aawemullin] : 224
17. UGGAUAUAGUUUAGUCUGGUGAGGUCAGAUACCAGACUAGCGAUAGUCCCUUGGCAGCUGAUUAUGAUUGAGUGAUGUUCAAUCG [Theo A Ex t9] : 157

----------
- Tested on: MS2 coat protein
- Assay summary: apparent KD of MS2 coat protein; designed switch direction (-1 OFF switch, 1 ON switch): -1; higher = weaker reporter binding
- Cond: Eterna round: R95; input ligand: microRNA oligo, concentration not stated
Catalogue of sequences with associated apparent KD of MS2 coat protein
Reported endpoint: apparent KD of MS2 coat protein (nM)

1. AGAAGUAGAAACCGAUCCUACAUGAGGAUCACCCAUGUAGCAAGACGUGCACGCGAAGCUCGUCAGACUACCAGAAA [salish99_TOv1_r3_005] (puzzle: Sensor v3, turn-off variant 1) : 223
2. UUUUAGAGAGGAUAUAUAUUGUGAAACAUGAGGAUCACCCAUGUAAUAAUAUGGAUGUAAAUAGAAGGCUCAUUUA [JL-ex5-3.03] (puzzle: Exclusion 5) : 44.6
3. GGUUGGCGAGGAUAUACAUGAGGAUCACCCAUGUGAAAAUAAAGUGAGGAAAAGAAAAGUAGAAGGCGCUGACG [Mat - Exclusion 3 - Mod of Salish D55] (puzzle: Exclusion 3) : 72.7
4. CUGGUCCGAGGAUAUAUUAUGUGAAACAUGAGGAUCACCCAUGUAAUAUGAUGGAUGAAAAUAGAAGGCGGACUAG [Mat - Exclusion 5 - JL mod - D30] (puzzle: Exclusion 5) : 43.5
5. CUCUUGGCAGGAUAUGCUCUCUUAGACAUGAGGAUCACCCAUGUGCUCAUUCCUUCUUUUGCAGAAGGGCCUUAAC [JR_E5_Sub047] (puzzle: Exclusion 5) : 63.9

----------
Catalogue of sequences with associated apparent KD of K4 kissing-loop reporter
- Tested on: K4 kissing-loop RNA reporter;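 further: bound reporter read as fluorescence of individual clusters on recovered sequencing chips by microscopy, with normalized cluster intensities fitted with a binding model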
- Assay summary: apparent KD of K4 kissing-loop reporter; higher = weaker reporter binding
- Cond: Eterna round: R107; input ligand: none
Reported endpoint: apparent KD of K4 kissing-loop reporter (nM)

1. AACUGUCAAGGACAACAUUACUGAAGUGAUACCAGCAUCGAAAGAUGCCCUUGGCAGCACUGACUUGCAGUGAUGUUGCAAGUAA [BrourdMod 7 - Jieux - Exclusion - Theophylline A] : 194
2. CCAGAAUGAUGAAGAUGAUAAAUUACUGAAGGAGCGCAUAUAGUUGCAGGUAGGUCGCGGUGAAUAAGUAUAGUGAUGUUAUACC [SSArgA.Ac] : 221
3. AACGUGGCCAAAGGAUAUCUCCCUACGUCGUUGCAUCUACCUCUGUUUGCUCUGAGUGAUGUUUGGAGAGAAGGUUGAGGCGAUU [theeternabot_exclusion_KL_FMN_B_29] : 442
4. AAGAGCUAGGCGGCCGCCACUAGAUGUGAACACAUACAAACCAGUGAUGUUGGUAUGAUGGACAGUAGGACCGGGCCUAGCUGAA [Exclusion - Tryptophan B (Freestyle 10)] : 1010

----------
- Tested on: MS2 coat protein
- Assay summary: apparent KD of MS2 coat protein; higher = weaker reporter binding
- Cond: Eterna round: R107; input ligand: tryptophan 2.4 mM
Catalogue of sequences with associated apparent KD of MS2 coat protein
Reported endpoint: apparent KD of MS2 coat protein (µM)

1) GGUUGGUGUAGAGAUAUAUUGAUUACUGAAGGAGCGGGAAAUAACCCAGGUAGGUCGCAGAGAUCCACAUGAGGAUCACCCAUGU [!0.K] : 0.0298
2) AACCGAGGCUAUCCUCUCCGACUAUGUGAUACCAGAAUAAUUUUAUUCCCUUGGCAGCAUGACAUGAGGAUCACCCAUGUCUCUU [SSTheo A #10] : 0.0159
3) AGGACGGUCGGAAGGAGCGGUACAUGAGGAUCACCCAUGUACUUAUGGGCAUCCGUAGAGUGCCAGGUAGGUCGCCGAUUGCGGG [XArg-B11] : 0.0341
4) UGUAACAUGAGGAUCACCCAUGUAAGUGAUACCAGAUAAGUAGUAGUCCCUUGGCAGCAUAUUGGGCGAGUGUAUAGUCUAUACG [Same State - Theophylline A (Freestyle 7)] : 0.0497
5) UAUCCACAUGAGGAUCACCCAUGUAAGGAAGGAGCGGUGAAUGCACCAGGUAGGUCGCCUUGCUGAGGACUGUCGGUGGAUUCGU [Exclusion - Arginine A (Freestyle 22)] : 0.032
6) AGUAGACACGCGGCCGCCACUUGAGGAUCACCCAAGUGGUGUGUACUUGAAACAAGUGCACAAUCAAGGACCGGGCGUGUCUACA [Omei Tryp B SS D v4] : 0.013
7) GUUAGAUCAAAAGAUUUAACAGUGGGUGAACGAGGACCGGUACGGCCGCCACUCGGACAUGAGGAUCACCCAUGUCCAUGUGAAA [AstrosExyTryA#16] : 0.0435
8) CAAUAGAUAGCGGCCGCCACUUACUCAUGAGGUAACAACAUGAGGAUCACCCAUGUUUGAGGAUCAAGGACCGGGCUAUUUAUUG [AstrosSSTryB#7] : 0.0191
9) ACGUCCGGAUUACUCGUGGGCAUGGUCGAUACCAGUAUUUUAAUCUACCCUUGGCAGCGACAUGAGGAUCACCCAUGUGCGAUGA [XTheo A #20] : 0.0218
10) AUAACAUGAGGAUCACCCAUGUAGAGUGAUACCAGACUAUGUAAUGUCCCUUGGCAGCACAAGUAAAGUUAUAAAUAAUGAUAGA [JR_SSTheophyA_Sub001] : 0.136
11) GCCAUCGGCGGAAGCCGAUGGGAUACAGAAGGAGCGUGGAUUAACACAGGUAGGUCGCUGGACAUGAGGAUCACCCAUGUAAUAG [SSAA #8] : 0.0217
